Biological target: T1, human CTGF (Homo sapiens, UniProt P29279, H83D)
T1 construct: purchased Creative Biomart
T1 sequence (P29279 with tags, fused parts or gaps H83D): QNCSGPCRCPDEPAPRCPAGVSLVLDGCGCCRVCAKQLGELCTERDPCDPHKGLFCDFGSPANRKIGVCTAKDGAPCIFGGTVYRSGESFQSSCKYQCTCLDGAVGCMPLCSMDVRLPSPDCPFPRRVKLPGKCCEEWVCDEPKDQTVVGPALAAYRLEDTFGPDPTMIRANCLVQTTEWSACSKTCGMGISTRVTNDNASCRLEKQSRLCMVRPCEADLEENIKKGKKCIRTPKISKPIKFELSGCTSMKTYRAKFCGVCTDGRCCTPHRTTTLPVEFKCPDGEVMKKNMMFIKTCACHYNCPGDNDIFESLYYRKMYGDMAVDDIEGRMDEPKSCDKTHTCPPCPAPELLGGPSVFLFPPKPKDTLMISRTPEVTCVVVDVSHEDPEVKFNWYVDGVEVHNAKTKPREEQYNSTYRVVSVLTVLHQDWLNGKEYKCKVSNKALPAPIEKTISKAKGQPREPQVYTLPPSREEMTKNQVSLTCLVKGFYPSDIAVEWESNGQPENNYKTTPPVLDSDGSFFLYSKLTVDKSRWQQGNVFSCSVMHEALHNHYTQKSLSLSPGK
Test: SPR binding kinetics and affinity, human CTGF
Conditions: 25° C., 1:1 binding model
Experimental: Surface plasmon resonance (SPR) was used to measure binding kinetics and affinity of the representative lipocalin muteins disclosed herein. The binding of exemplary lipocalin muteins to human (Creative Biomart), cynomolgus, rat (R&D Systems) and mouse CTGF (Abbexa) was determined by SPR using a Biacore instrument (Cytiva, formerly GE Healthcare). Some targets were fused to a human IgG1 Fc tag, and captured via the anti-human IgG antibody kit, others were directly immobilized. […]
Catalogue of human CTGF kon readings, one per entry.
Return type: number; implicit unit M⁻¹ s⁻¹.

SEQ ID NO: 24: optimized CTGF-binding hNGAL lipocalin mutein (protein, lipocalin mutein) QDSTSDLIPAPPLSKVPLQQNFQDNQFQGKWYVVGVAGNAILRTDKQPAKMFATIYELKEDKSYDVTSVRFEAKSCKYTIKTFVPGSQPGEFTAGNIKSAPGQTSTLVRVVSTNYNQHAMVFFKHVSQNREIFVITLYGRTKELTSELKENFIRFSKSLGLPENHIVFPVPIDQCIDG: 157000

Q: For the molecule SEQ ID NO: 14: optimized CTGF-binding hNGAL lipocalin mutein (protein, lipocalin mutein) QDSTSDLIPAPPLSKVPLQQNFQDNQFQGKWYVVGLAGNAILREDKYPAKMFATIYELKEDKSYDVTSVRFEAKSCIYTIKTFVPGSQPGEFTRGNIKSAPGQTSTLVRVVSTNYNQHAMVFFKHVSQNREIFVITLYGRTKELTSELKENFIRFSKSLGLPENHIVFPVPIDQCIDG , what human CTGF kon is on record?
Ans: 102000

Q: For the molecule SEQ ID NO: 27: optimized CTGF-binding hNGAL lipocalin mutein (protein, lipocalin mutein) QDSTSDLIPAPPLSKVPLQQNFQDNQFQGKWYVVGLAGNYRLREDKDPSKMGATIYELKEDKSYDVTQVQFDDKKCLYVIETFVPGSQPGEFTLGAIKSYPGLTSQLVRVVSTNYNQHAMVFLKKVYGSEEYFHITLYGRTKELTSELKENFIRFSKSLGLPENHIVFPVPIDQCIDG , what human CTGF kon is on record?
Ans: 30500
